# reported log10(IC50); entries follow
- system under test: human mPGES-1 (Homo sapiens (Human), UniProt O14684)
- Sequence (O14684 whole entry): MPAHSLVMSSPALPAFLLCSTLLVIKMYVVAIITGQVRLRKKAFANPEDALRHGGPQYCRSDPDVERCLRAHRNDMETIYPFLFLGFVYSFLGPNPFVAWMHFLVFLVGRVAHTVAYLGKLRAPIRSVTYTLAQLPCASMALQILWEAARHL
- assay: mPGES-1 inhibiting activity (microsome fractions, PGE2 by HTRF)
- Assay type: biochemical
- experimental context: microsomes from CHO-K1 cells transfected with human mPGES-1; PGH2 1 μM, 4° C., 60 seconds; read-out: mPGES-1 Inhibition IC50
Where a name gives a salt, the structure may show the parent alone.
Form field - Quantity: IC50; Unit: nM; Scale: log10

Would you please look over these solved cases?
INSERT INTO assay_data (molecule, system_under_test, measure, value) VALUES
  ('Cc1c(Cl)cccc1NC(=O)c1cc(NC(=O)c2ccccc2C(F)(F)F)cc2[nH]c([C@@H]3CCC(=O)N3)nc12 [Example 130, hydrochloride]', 'human mPGES-1 (Homo sapiens (Human), UniProt O14684)', 'log10(IC50)', 0.59),
  ('O=C(Nc1cc(C(=O)NCc2ccccc2C(F)(F)F)c2nc(C3CCCO3)[nH]c2c1)c1ccccc1C(F)(F)F (stereo in doubt) [Example 67, hydrochloride]', 'human mPGES-1 (Homo sapiens (Human), UniProt O14684)', 'log10(IC50)', 1.04),
  ('CC(=O)N1CCC[C@H]1c1nc2c(C(=O)Nc3cccc(Cl)c3C)cc(NC(=O)c3ccccc3C(F)(F)F)cc2[nH]1 [Example 73]', 'human mPGES-1 (Homo sapiens (Human), UniProt O14684)', 'log10(IC50)', 1.27),
  ('Cc1nc2c(C(=O)NCc3ccccc3C(F)(F)F)cc(NC(=O)c3ccccc3C(F)(F)F)cc2o1 [Example 53]', 'human mPGES-1 (Homo sapiens (Human), UniProt O14684)', 'log10(IC50)', 2.25),
  ('O=C(Nc1cc2c(c(C(=O)NCc3ccccc3C(F)(F)F)c1)OCC2)c1ccccc1C(F)(F)F [Example 6]', 'human mPGES-1 (Homo sapiens (Human), UniProt O14684)', 'log10(IC50)', 1.44);

Prompt: log10(IC50) for COCCCc1ccc(Cl)c(C(=O)Nc2cc(C(=O)Nc3cccc(Cl)c3C)c3nc(COC)[nH]c3c2)c1 [Example 116, hydrochloride] ?
Response: 0.99

Prompt: log10(IC50) for Cc1c(Cl)cccc1NC(=O)c1cc(NC(=O)c2ccccc2C(F)(F)F)cc2[nH]c([C@H]3CCCN3C(=O)OC(C)(C)C)nc12 [Example 70] ?
Response: 0.66

Prompt: log10(IC50) for Cc1c(Cl)cccc1NC(=O)c1cc(NC(=O)c2cc(Cl)ccc2Cl)cc2[nH]c(C3CCCC3)nc12 [Example 125, hydrochloride] ?
Response: 1.41

Prompt: log10(IC50) for CN(C)c1nc2c(C(=O)Nc3ccc4c(c3)CCC4)cc(NC(=O)c3ccccc3C(F)(F)F)cc2[nH]1 [Example 204, hydrochloride] ?
Response: 0.00

Prompt: log10(IC50) for COCc1nc2c(C(=O)Nc3cccc(Cl)c3C)cc(NC(=O)c3cc(C#CCOC(C)(C)C)ccc3Cl)cc2[nH]1 [Example 117, hydrochloride] ?
Response: 2.77

Prompt: log10(IC50) for CNc1nc2c(C(=O)Nc3cccc(Cl)c3C)cc(NC(=O)c3ccccc3C(F)(F)F)cc2[nH]1 [Example 138, hydrochloride] ?
Response: 0.34

Prompt: log10(IC50) for CCOCCc1nc2c(C(=O)Nc3cccc(Cl)c3C)cc(NC(=O)c3ccccc3C(F)(F)F)cc2[nH]1 [Example 78, hydrochloride] ?
Response: 1.99

Prompt: log10(IC50) for COCc1nc2c(C(=O)Nc3cccc(Cl)c3C)cc(NC(=O)c3cc(OCC(F)F)ccc3Cl)cc2[nH]1 [Example 248, hydrochloride] ?
Response: 2.30
